system: Hs-578T; assay: NCI tumour cell line growth inhibition, 48 h
Activity calls are given as the source filed them. No stated cut-off is given here; in the data, active = GI50 up to about 1.1 µM and inactive = higher.
Use one of these outcomes when replying: 1 = active, 0 = inactive

COMPOUND	STUDY TARGET	LABEL
O=C1C[C@@H](C(=O)OCc2ccccc2)NC(=O)C[C@@H](C(=O)OCc2ccccc2)NC(=O)C[C@@H](C(=O)OCc2ccccc2)N1	Hs-578T	0
c1ccc(CCCN2C3CCC2CN(CCOC(c2ccccc2)c2ccccc2)C3)cc1	Hs-578T	0
NC(CCC(=O)NC(CSC(=O)N(O)c1ccc(Br)cc1)C(=O)NCC(=O)O)C(=O)O (stereo not given)	Hs-578T	0
N#Cc1cc2c(n(C3OC(CO)C(O)C(O)C3O)c1=S)CCCCCC2 (stereo not given)	Hs-578T	0
N=C(N)N/N=C\c1c(-c2cccc([N+](=O)[O-])c2)nc2sccn12	Hs-578T	0
C/C(=N\NC(=S)NCc1ccccc1)c1nc2cccnc2[nH]1	Hs-578T	0

What call does the record list for CC1CC(Nc2ccc(Br)cc2)N(C(=O)c2ccc(Br)cc2)O1 (stereo not given) ?
0

What call does the record list for COc1ccc(C2C3=C(COC3=O)Oc3cc4c(cc32)OCO4)cc1OC (stereo not given) ?
1

What call does the record list for `c1ccc([P+](c2ccccc2)(c2ccccc2)C2c3ccccc3-c3ccccc32)cc1` ?
0

What call does the record list for c1ccc2c(c1)c1c3n2-c2cc(on2)C3CCC1 (stereo not given) ?
0

What call does the record list for CC(=O)OC1COC(n2nc(/C=C/c3ccc(Cl)cc3)c(=O)n(/N=C/c3ccccc3)c2=S)C(OC(C)=O)C1OC(C)=O (stereo not given) ?
0

What call does the record list for Oc1ccc(O)c(CNc2ccc(C(O)C(F)(F)F)cc2)c1 (stereo not given) ?
0

What call does the record list for `Fc1ccc2c3c([nH]c2c1)CCNC3` ?
0

What call does the record list for `COc1ccc2c(c1)c(=O)c1c(NCCNCCO)ccc3c(=O)n(CCN(C)C)c(=O)n2c31` ?
1

What call does the record list for `CC1(C)CC(=O)c2c(nc3ccc4ccccc4c3c2-c2ccc(NC(=O)CCC(=O)Nc3ccc(-c4c5c(nc6ccc7ccccc7c46)CC(C)(C)CC5=O)cc3)cc2)C1` ?
0

Values compiled from ChEMBL document CHEMBL1201862.
